Record form. Attribute: pIC50. Fill in for each entry.
- measurement target: NRAS G12C (Homo sapiens (Human), UniProt P01111+P62937, G12C)
- Sequence (P01111 whole entry G12C): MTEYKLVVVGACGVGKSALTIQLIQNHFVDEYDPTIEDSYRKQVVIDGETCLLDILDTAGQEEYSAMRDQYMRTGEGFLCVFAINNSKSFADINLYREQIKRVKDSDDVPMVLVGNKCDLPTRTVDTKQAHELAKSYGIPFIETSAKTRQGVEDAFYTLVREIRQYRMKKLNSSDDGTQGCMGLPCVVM
- Sequence (P62937 whole entry): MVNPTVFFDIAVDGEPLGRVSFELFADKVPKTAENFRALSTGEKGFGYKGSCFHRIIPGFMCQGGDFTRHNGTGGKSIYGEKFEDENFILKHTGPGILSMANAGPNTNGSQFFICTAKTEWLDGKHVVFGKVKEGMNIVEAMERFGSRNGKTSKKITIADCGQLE
- protocol text: Ras-Raf (BRAF RBD) disruption / FRET / MOA assay, NRAS G12C
- Format: biochemical
- condition: read-out: IC50* NRAS G12C FRET data
pIC50: −log10 of the molar value.

Item C=CC(=O)N1CC(OC[C@H](C(=O)N[C@H]2Cc3cc(cc(C(F)F)c3)-c3ccc4c(c3)c(c(-c3cccnc3[C@H](C)OC)n4CC)CC(C)(C)COC(=O)[C@@H]3CCCN(N3)C2=O)C(C)C)C1 (atropisomer, axis not shown) [Example A345] has what recorded pIC50? 5.00 to 6.00

So what's the measured pIC50 for this one? CCn1c(-c2cccnc2[C@H](C)OC)c2c3cc(ccc31)-c1cccc(c1)C[C@H](NC(=O)[C@H](C(C)C)N(C)C(=O)[C@H]1CCN(C(=O)/C=C/CN3CC(OC)C3)C1)C(=O)N1CCC[C@H](N1)C(=O)OCC(C)(C)C2 (atropisomer, axis not shown) [Example A203] 5.00 to 6.00

Using the record for C=CC(=O)N1CC[C@H](C(=O)N(C)[C@H](C(=O)N[C@H]2Cc3cccc(c3)-c3ccc4c(c3)c(c(-c3cnccc3COC)n4CC)CC(C)(C)COC(=O)[C@@H]3CCCN(N3)C2=O)C(C)C)C1 (atropisomer, axis not shown) [Example A119] , report its pIC50. 6.00 to 7.00

// query pIC50 value for entry C=CC(=O)N1CC[C@H](C(=O)N(C)[C@H](C(=O)N[C@H]2Cc3cc(O)cc(c3)-c3ccc4c(c3)c(c(-c3cccnc3[C@@H](OC)C3CC3)n4CC)CC(C)(C)COC(=O)[C@@H]3CCCN(N3)C2=O)C(C)C)C1 (atropisomer, axis not shown) [Example A206] 6.00 to 7.00

Data request, read-out pIC50, for C=CC(=O)N1CC[C@]2(C1)CN(C(=O)N(C)[C@H](C(=O)N[C@H]1Cc3nc(cs3)-c3ccc4c(c3)c(c(-c3cccnc3[C@H](C)OC)n4CC)CC(C)(C)COC(=O)[C@@H]3CCCN(N3)C1=O)C(C)C)CCO2 (atropisomer, axis not shown) [Example A354] 7.00 to 8.00

GET /values?readout=pIC50&item= CCn1c(-c2cccnc2[C@H](C)OC)c2c3cc(ccc31)-c1nsc(n1)C[C@H](NC(=O)[C@H](C(C)C)N(C)C(=O)[C@H]1CCN(C(=O)C#CCN3CCOCC3)C1)C(=O)N1CCC[C@H](N1)C(=O)OCC(C)(C)C2 (atropisomer, axis not shown) [Example A201] 6.00 to 7.00

Recorded pIC50 of C=CC(=O)N1CC[C@@]2(COCCN2C(=O)N(C)[C@H](C(=O)N[C@H]2Cc3nc(cs3)-c3ccc4c(c3)c(c(-c3cccnc3[C@H](C)OC)n4CC)CC(C)(C)COC(=O)[C@@H]3CCCN(N3)C2=O)C(C)C)C1 (atropisomer, axis not shown) [Example A677] , please. 6.00 to 7.00
